TARGET ENTITY: T1, TRBP-dsRBD1 (UniProt Q15633-2 9-85)
T1 sequence: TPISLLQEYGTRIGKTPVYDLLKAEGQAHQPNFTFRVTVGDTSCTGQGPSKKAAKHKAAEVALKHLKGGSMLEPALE
METHOD SUMMARY: EMSA; apparent Kd; nH 1.3; 50 mM sodium cacodylate pH 7.0, 50 mM potassium glutamate, 5% glycerol; EMSA 0.5 pM RNA, 30 min at room temperature, gel 0.25X TBE at 10 C; CD at 10 C with 5-15 uM RNA
CONDITION DESCRIPTION: protein: recombinant; label: 5'-32P; hairpin, 16 bp stem, U8 loop
OBSERVABLE: pKd
Numbers only, as −log10 of the molar value.

Request: Requested field: pKd. Item: GUCAGCAGUGCCUUAGUUUUUUUUCUAAGGCACUGCUGAC (structured_RNA) [ds16-octa-U]
Result: 5.10
